// data source = patent US20150218281A1

target system: T1, recombinant human OX40L (extracellular domain, R&D Systems) (human, UniProt P23510 51-183)
T1 construct: also called hOX40L; rec. hOX40L
T1 sequence: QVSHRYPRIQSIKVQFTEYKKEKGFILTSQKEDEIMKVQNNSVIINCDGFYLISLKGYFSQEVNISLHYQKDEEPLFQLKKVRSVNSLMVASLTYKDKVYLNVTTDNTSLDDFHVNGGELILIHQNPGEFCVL
experiment notes: SPR, second injection after competitor OX40L19D08
observation type: Binding Level sample 2 (RU)

{"columns": ["binder", "observation type", "meas value"],
 "data": [
  ["OX40L15B07 (VHH, monovalent Nanobody from E. coli; not shown: C-terminal c-myc and His6 tag) VHH: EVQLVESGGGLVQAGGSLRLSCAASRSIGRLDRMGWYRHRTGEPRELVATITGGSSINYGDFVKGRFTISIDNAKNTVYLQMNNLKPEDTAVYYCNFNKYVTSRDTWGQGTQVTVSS", "Binding Level sample 2 (RU)", 217],
  ["OX40L01E10 (VHH, monovalent Nanobody from E. coli; not shown: C-terminal c-myc and His6 tag) VHH: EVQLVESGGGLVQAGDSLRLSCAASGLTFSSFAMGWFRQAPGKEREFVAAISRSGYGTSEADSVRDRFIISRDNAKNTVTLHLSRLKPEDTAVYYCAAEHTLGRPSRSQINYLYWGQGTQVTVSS", "Binding Level sample 2 (RU)", 202],
  ["OX40L01B11 (VHH, monovalent Nanobody from E. coli; not shown: C-terminal c-myc and His6 tag) VHH: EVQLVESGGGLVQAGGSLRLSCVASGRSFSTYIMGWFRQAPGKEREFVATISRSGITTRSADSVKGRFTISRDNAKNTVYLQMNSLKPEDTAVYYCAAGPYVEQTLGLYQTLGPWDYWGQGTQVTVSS", "Binding Level sample 2 (RU)", 433]
]}
